# target_under_test: hNLRP3 (Homo sapiens, UniProt Q96P20)
# Construct: THP-1 cells were purchased from the American Type Culture Collection
# Sequence (Q96P20 whole entry): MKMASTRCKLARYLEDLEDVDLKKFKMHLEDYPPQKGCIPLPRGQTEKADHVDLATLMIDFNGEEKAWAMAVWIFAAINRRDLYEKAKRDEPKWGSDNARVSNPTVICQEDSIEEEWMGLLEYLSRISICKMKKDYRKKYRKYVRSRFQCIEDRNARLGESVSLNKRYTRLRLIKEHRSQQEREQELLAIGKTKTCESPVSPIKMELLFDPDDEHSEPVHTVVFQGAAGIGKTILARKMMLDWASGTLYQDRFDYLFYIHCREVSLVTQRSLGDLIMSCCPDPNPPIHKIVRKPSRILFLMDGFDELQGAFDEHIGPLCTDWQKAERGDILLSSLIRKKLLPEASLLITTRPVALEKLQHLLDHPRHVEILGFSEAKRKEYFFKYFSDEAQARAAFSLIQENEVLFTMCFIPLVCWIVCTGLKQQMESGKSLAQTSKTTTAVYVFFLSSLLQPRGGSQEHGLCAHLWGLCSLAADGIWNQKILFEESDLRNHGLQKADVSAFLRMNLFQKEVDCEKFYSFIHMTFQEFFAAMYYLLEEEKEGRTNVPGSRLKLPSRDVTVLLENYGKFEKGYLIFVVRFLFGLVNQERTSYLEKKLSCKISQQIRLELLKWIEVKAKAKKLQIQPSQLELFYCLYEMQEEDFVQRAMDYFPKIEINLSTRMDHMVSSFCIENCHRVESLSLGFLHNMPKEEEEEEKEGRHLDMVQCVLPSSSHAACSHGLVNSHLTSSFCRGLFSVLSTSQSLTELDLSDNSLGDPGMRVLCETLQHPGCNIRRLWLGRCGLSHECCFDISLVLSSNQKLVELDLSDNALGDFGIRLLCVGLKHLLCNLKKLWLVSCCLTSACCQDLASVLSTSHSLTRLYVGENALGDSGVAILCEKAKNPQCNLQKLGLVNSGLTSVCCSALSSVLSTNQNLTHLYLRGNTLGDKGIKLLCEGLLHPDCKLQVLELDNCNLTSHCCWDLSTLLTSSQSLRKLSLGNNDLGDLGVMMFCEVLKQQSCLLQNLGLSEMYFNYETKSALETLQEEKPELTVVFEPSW
# protocol_notes: Measurement of IL-1β production in PMA-differentiated THP-1 cells (hNLRP3 agonist; ELISA, alternative and hTRF procedures)
pEC50: −log10 of the molar value.
Decide by pEC50: equal to or exceeding 5 means True, less means False.

Given the entry CN(Cc1nc2c(N)nc3cc(-c4cc[nH]n4)ccc3c2[nH]1)S(C)(=O)=O [Compound 115] , answer whether its pEC50 meets or surpasses 5.
True

Also need CN(Cc1nc2c(N)nc3cc(-c4cc[nH]n4)ccc3c2[nH]1)C(=O)c1nccs1 [Compound 377] , thanks.
True

Also need CCN(Cc1nc2c(N)nc3cc(Cl)ccc3c2n1CCCC(=O)N1CCCC1)C(C)=O [Compound 222] , thanks.
False

Also need COc1ccc(-c2ccc3c(c2)nc(N)c2nc(CN4CCCC4=O)[nH]c23)cc1 [Compound 292] , thanks.
True

Also need CCN(Cc1nc2c(N)nc3ccc(Br)cc3c2[nH]1)C(=O)c1ccccc1 [Compound 204] , thanks.
True

Also need COC(=O)CCCn1c(CN2CCCC2=O)nc2c(N)nc3cc(Br)ccc3c21 [Compound 341] , thanks.
True

Also need Nc1nc2cc(C(F)(F)F)ccc2c2[nH]c(CN3CCCC3=O)nc12 [Compound 163] , thanks.
False

---

# target_under_test: hNLRP3 (Homo sapiens)
# Construct: THP-1 cells were purchased from the American Type Culture Collection
# protocol_notes: Measurement of IL-1β production in PMA-differentiated THP-1 cells (hNLRP3 agonist; ELISA, alternative and hTRF procedures)
# note: exactly 2000 nM is not below, so it is rule not met; use rule met for EC50 strictly under it

Check if EC50 falls below 2000 nM for COC(=O)N(C)Cc1nc2c(N)nc3cc(-c4cc[nH]n4)ccc3c2[nH]1 [Compound 405] .
rule not met

Also need Nc1nc2cc(-c3cccc(F)c3)ccc2c2[nH]c(CN3CCCC3=O)nc12 [Compound 289] , thanks.
rule met

Also need CCN(Cc1nc2c(N)nc3ccccc3c2n1CCC(=O)N1CCN(C(=O)OC(C)(C)C)CC1)C(C)=O [Compound 212] , thanks.
rule not met

Also need N#Cc1cncc(-c2ccc3c(c2)nc(N)c2nc(CN4CCCC4=O)[nH]c23)c1 [Compound 326] , thanks.
rule not met

Also need CCN(Cc1nc2c(N)nc3cc(-c4ccsc4)ccc3c2[nH]1)C(=O)OC(C)(C)C [Compound 397] , thanks.
rule met

Also need CCN(Cc1nc2c(N)nc3cc(-c4ccc(C)cc4)ccc3c2[nH]1)C(C)=O [Compound 422] , thanks.
rule met

Also need CCNCc1nc2c(N)nc3cc(-c4ccn[nH]4)ccc3c2n1CC [Compound 464] , thanks.
rule met

Also need CN(C)C(=O)CCCn1c(CN2CCCC2=O)nc2c(N)nc3cc(-c4cccnc4)ccc3c21 [Compound 340] , thanks.
rule not met

Also need CC(=O)NCc1nc2c(N)nc3cc(-c4cc[nH]n4)ccc3c2[nH]1 [Compound 113] , thanks.
rule met

Also need Nc1nc2cc(-c3cc[nH]n3)ccc2c2[nH]c(CN3CCOC3=O)nc12 [Compound 365] , thanks.
rule not met

Also need Nc1nc2ccccc2c2[nH]c(CN3CCCC3=O)nc12 [Compound 278] , thanks.
rule not met

Also need CCOC(=O)N(CC)Cc1nc2c(N)nc3cc(-c4cc[nH]n4)ccc3c2[nH]1 [Compound 436] , thanks.
rule met

Also need CCN(Cc1nc2c(N)nc3cc(-c4cccs4)ccc3c2n1CCO)C(C)=O [Compound 482] , thanks.
rule met

Also need CCN(Cc1nc2c(N)nc3cc(Cl)ccc3c2n1CCCC(=O)N1CCN(C)CC1)C(C)=O [Compound 221] , thanks.
rule not met

Also need CN(Cc1nc2c(N)nc3cc(-c4cc[nH]n4)ccc3c2[nH]1)C(=O)CN [Compound 372] , thanks.
rule not met

Also need CCNCc1nc2c(N)nc3cc(OC)ccc3c2[nH]1 [Compound 154] , thanks.
rule not met

Also need CCn1c(CN2CCCC2=O)nc2c(N)nc3cc(-c4ccn[nH]4)ccc3c21 [Compound 466] , thanks.
rule met

---

Task for the reader: assign each of the following molecules its reported pEC50.
# target_under_test: TLR8 (Homo sapiens)
# Construct: host or cells: HEK-Blue cells (human HEK) co-expressing TLR8 and an NF-kB/AP1-inducible SEAP reporter
# Sequence (Q9NR97 27-1041): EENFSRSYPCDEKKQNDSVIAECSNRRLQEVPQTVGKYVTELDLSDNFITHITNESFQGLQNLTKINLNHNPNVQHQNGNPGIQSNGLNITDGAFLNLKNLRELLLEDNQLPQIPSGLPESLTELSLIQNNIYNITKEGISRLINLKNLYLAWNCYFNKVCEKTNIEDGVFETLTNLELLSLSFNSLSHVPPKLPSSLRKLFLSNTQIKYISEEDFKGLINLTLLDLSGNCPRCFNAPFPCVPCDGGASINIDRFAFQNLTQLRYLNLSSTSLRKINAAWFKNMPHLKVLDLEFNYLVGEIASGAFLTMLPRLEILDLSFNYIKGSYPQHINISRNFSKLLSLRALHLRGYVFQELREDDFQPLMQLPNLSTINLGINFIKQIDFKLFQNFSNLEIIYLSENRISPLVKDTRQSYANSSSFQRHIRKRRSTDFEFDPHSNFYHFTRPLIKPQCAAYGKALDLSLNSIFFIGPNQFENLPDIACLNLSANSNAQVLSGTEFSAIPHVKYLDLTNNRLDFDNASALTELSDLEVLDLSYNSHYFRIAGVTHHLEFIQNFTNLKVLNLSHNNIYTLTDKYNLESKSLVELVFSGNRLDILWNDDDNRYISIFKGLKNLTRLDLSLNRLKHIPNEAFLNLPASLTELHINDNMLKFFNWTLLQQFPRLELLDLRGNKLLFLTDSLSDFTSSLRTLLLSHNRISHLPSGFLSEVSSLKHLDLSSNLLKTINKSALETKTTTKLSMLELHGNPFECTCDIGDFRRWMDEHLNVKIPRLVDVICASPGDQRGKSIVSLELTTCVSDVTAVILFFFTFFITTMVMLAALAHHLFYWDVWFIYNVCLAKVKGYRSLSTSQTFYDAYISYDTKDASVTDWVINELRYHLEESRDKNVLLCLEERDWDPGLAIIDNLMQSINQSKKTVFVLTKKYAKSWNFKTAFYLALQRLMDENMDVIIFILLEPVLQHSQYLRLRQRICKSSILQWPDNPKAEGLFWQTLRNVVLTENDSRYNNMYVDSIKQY
# protocol_notes: In vitro human TLR8 binding reporter assay (HEK-Blue, NF-kB/AP1-inducible SEAP)
# Format: cell-based
# recorded_conditions: activity range symbols
pEC50: −log10 of the molar value.

Returns the measured pEC50 for the input molecule. Input: CC(c1nc2c(N)nc3cc(Br)ccc3c2[nH]1)N1CCCC1=O (centres unmarked) [Compound 303]
4.00 to 4.70

Also need CC(=O)N(C)Cc1nc2c(N)nc3cc(-c4cc[nH]n4)ccc3c2[nH]1 [Compound 129] , thanks.
< 4.00

Also need CNCc1nc2c(N)nc3cc(-c4cc[nH]n4)ccc3c2[nH]1 [Compound 401] , thanks.
< 4.00

Also need CCNCc1nc2c(N)nc3cc(-c4cccs4)ccc3c2n1CC [Compound 468] , thanks.
< 4.00

Also need CN(Cc1nc2c(N)nc3cc(-c4cc[nH]n4)ccc3c2[nH]1)C(=O)c1ccccc1 [Compound 376] , thanks.
< 4.00

Also need Nc1nc2cc(-c3ccccc3Cl)ccc2c2[nH]c(CN3CCCC3=O)nc12 [Compound 281] , thanks.
< 4.00

Also need CCNCc1nc2c(N)nc3cc(OC)ccc3c2[nH]1 [Compound 154] , thanks.
4.00 to 4.70

Also need Nc1nc2cc(Br)ccc2c2[nH]c(CN3CCCC3=O)nc12 [Compound 294] , thanks.
< 4.00

Also need CCNCc1nc2c(N)nc3cc(-n4cccn4)ccc3c2[nH]1 [Compound 398] , thanks.
< 4.00

Also need CCN(Cc1nc2c(N)nc3cc(Cl)ccc3c2n1CCCC(=O)N1CCN(C)CC1)C(C)=O [Compound 221] , thanks.
< 4.00

Also need N#Cc1ccccc1-c1ccc2c(c1)nc(N)c1nc(CN3CCCC3=O)[nH]c12 [Compound 315] , thanks.
< 4.00

---

# target_under_test: TLR7 (Homo sapiens, UniProt Q9NYK1)
# Construct: host or cells: HEK-Blue cells (human HEK) co-expressing TLR7 and an NF-kB/AP1-inducible SEAP reporter
# Sequence (Q9NYK1 27-1049): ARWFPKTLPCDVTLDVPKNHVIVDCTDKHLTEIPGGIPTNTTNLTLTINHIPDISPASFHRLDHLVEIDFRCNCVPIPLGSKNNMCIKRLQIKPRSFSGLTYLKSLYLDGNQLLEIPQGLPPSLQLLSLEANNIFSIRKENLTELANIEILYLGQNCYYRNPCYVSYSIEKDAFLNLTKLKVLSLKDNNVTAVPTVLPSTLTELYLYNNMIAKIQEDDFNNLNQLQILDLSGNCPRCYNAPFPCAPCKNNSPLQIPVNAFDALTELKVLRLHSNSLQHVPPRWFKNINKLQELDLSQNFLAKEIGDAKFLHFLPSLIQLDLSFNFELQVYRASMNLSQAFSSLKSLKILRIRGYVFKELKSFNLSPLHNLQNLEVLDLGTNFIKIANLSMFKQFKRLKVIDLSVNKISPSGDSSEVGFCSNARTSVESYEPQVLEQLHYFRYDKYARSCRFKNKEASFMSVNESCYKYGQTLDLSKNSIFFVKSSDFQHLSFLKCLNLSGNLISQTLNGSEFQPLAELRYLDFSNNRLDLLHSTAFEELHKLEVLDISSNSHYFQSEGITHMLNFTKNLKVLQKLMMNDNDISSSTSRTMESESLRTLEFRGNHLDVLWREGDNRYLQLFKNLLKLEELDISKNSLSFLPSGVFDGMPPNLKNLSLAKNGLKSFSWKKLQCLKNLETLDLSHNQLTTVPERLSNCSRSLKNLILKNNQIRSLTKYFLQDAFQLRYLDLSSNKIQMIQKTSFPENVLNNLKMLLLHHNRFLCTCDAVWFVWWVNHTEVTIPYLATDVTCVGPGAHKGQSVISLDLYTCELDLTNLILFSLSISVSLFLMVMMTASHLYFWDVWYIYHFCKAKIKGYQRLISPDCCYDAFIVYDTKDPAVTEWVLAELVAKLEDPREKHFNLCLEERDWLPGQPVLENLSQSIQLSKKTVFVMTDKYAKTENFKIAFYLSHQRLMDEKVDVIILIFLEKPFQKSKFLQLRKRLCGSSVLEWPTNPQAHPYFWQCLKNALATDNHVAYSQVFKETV
# protocol_notes: In vitro human TLR7 binding reporter assay (HEK-Blue, NF-kB/AP1-inducible SEAP)
# Assay type: cell-based
# recorded_conditions: activity range symbols
Task for the reader: assign each of the following compounds its reported EC50.

Returns the measured EC50 for the input compound. Input: `CCN(Cc1nc2c(N)nc3cc(C)ccc3c2[nH]1)C(C)=O`
> 100 µM

Also need CC(c1nc2c(N)nc3cc(Br)ccc3c2[nH]1)N1CCCC1=O (stereo not shown) , thanks.
20 to 100 µM

Also need `CCNCc1nc2c(N)nc3cc(C(F)(F)F)ccc3c2n1CCCC(=O)OC` , thanks.
20 to 100 µM

Also need `CCN(Cc1nc2c(N)nc3cc(C4CCCC4)ccc3c2[nH]1)C(C)=O` , thanks.
> 100 µM

Also need `CN(Cc1nc2c(N)nc3cc(-c4cc[nH]n4)ccc3c2[nH]1)C(=O)c1ccccc1` , thanks.
> 100 µM

Also need `CCN(Cc1nc2c(N)nc3cc(OC)ccc3c2[nH]1)C(C)=O` , thanks.
> 100 µM

Also need CC(c1nc2c(N)nc3cc(-c4cccnc4)ccc3c2[nH]1)N1CCCC1=O (stereo not shown) , thanks.
20 to 100 µM

Also need `N#Cc1ccccc1-c1ccc2c(c1)nc(N)c1nc(CN3CCCC3=O)[nH]c12` , thanks.
> 100 µM

Also need `CCN(Cc1nc2c(N)nc3cc(-c4cc[nH]n4)ccc3c2[nH]1)C(=O)c1ccncc1` , thanks.
> 100 µM

Also need `Nc1nc2cc(-c3ccc(C(F)(F)F)nc3)ccc2c2[nH]c(CN3CCCC3=O)nc12` , thanks.
> 100 µM

Also need `CCNCc1nc2c(N)nc3cc(-c4cc[nH]n4)ccc3c2n1C` , thanks.
> 100 µM

Also need `CCC(=O)N(CC)Cc1nc2c(N)nc3cc(-n4cccn4)ccc3c2n1CC` , thanks.
> 100 µM

Also need `CCN(Cc1nc2c(N)nc3cc(Cl)ccc3c2n1CCCC(=O)NC)C(C)=O` , thanks.
> 100 µM
